- TARGET_UNDER_TEST: MAGI2_2, Q86UL8
- Sequence (Q86UL8 410-522): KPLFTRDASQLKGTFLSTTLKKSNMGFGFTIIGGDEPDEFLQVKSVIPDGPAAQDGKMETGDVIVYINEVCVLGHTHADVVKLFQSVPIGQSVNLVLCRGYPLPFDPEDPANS
- PROCEDURE_TEXT: holdup assay
- Parameters: key: below the threshold = too weak to quantify, mostly under pKd 3.1 to 4
- CONDITION_SUMMARY: plain residues with an end cap or a label only (N-terminal biotin on a linker: ado-ado)
READOUT: pKd

Take a look at these entries with their results.
BINDER	pKd
SPDRDRESIV [SCN5A, Q14524]	4.26
EKCGKEFSEF [PRKACA, P17612]	below the threshold
ARSAAASNYV [CLDN4, O14493]	3.6
RDPPAEWTRV [PTPN18, Q99952]	4.04
TISFTQTSQF [SLC1A1, P43005]	below the threshold

*Q* Please look up its pKd: KSRVAFFEEL [NF2, P35240;P35240-1]
*A* below the threshold

*Q* Please look up its pKd: EPQYQPGENL [SRC, P12931]
*A* below the threshold

*Q* Please look up its pKd: LKDDELKTKL [SLCO1A2, P46721]
*A* below the threshold

// provenance: paper PMC9482650
